- method: Drug level in mesenteric fat tissue of cynomolgus monkey at 10 mg/kg, po after 2 hrs
- Assay type: ADME, organism-based, Macaca fascicularis, Adipose tissue
- Design: dose 10 mg/kg, route oral
- measurement_context: read-out: Drug uptake
endpoint_label: concentration at 2 h (µM)
Note: unit µM is implicit; provide only the numeric part.

Q. Would you mind telling me what concentration at 2 h value was observed for "C[C@@H]1CN(CC2(C(N)=O)CC2)CCN1S(=O)(=O)c1ccc([C@](C)(O)C(F)(F)F)cc1" ?
A. 40.7

---

- method: Drug level in mesenteric fat tissue of cynomolgus monkey at 2 mg/kg, po after 2 hrs
- Assay type: ADME, organism-based, Macaca fascicularis, Adipose tissue
- Design: dose 2 mg/kg, route oral
- measurement_context: read-out: Drug uptake
endpoint_label: concentration at 2 h (nM)
Lab book: enter the figure in nM, no units written.

Q. Form field: reported concentration at 2 h of "C[C@@H]1CN(CC2(C(N)=O)CC2)CCN1S(=O)(=O)c1ccc([C@](C)(O)C(F)(F)F)cc1"
A. 2780

---

- method: Solubility at pH 5.0
- Format: physicochemical
- measurement_context: buffer
solubility by entry:
Kindly provide the numeric value in µg/mL only, without the unit symbol.

Here are 6 compounds together with their reported answers.
Q. Recorded solubility for "C[C@@H]1CN(CCc2ccncc2)CCN1S(=O)(=O)c1ccc(C(C)(C)C)cc1" , please?
A. 21.8

Q. Item "C[C@@H]1CN(Cc2ccnc3ccccc23)CCN1S(=O)(=O)c1ccc(C(C)(C)C)cc1" has what recorded solubility?
A. 1

Q. solubility for "C[C@@H]1CN(c2ccc([N+](=O)[O-])cc2)CCN1S(=O)(=O)c1ccc(C(C)(C)C)cc1" ?
A. 1.8

Q. Entry "CC(C)(C)c1ccc(S(=O)(=O)N2CCN(c3ccc([N+](=O)[O-])cc3)CC2)cc1" has what solubility?
A. 0.5

Q. State the recorded solubility for this entry: "C[C@@H]1CN(Cc2ccncc2)CCN1S(=O)(=O)c1ccc(C(C)(C)C)cc1"
A. 18.1

Q. Suppose we examine the compound CC(c1ccncc1)N1CCN(S(=O)(=O)c2ccc(C(C)(C)C)cc2)[C@H](C)C1 (some centres not stated) ; what solubility value has been reported?
A. 20.8

More entries:
Q. Return reported solubility; argument: "C[C@@H]1CN(CCCc2ccncc2)CCN1S(=O)(=O)c1ccc(C(C)(C)C)cc1"
A. 39

---

- method: Plasma concentration in cynomolgus monkey at 10 mg/kg, po after 2 hrs
- Format: ADME, organism-based, Macaca fascicularis
- Set-up: dose 10 mg/kg, route oral
endpoint_label: concentration at 2 h (nM)
Give just the number in nM; leave the unit off.

Q. So what's the measured concentration at 2 h for this one? "C[C@@H]1CN(CC2(C(N)=O)CC2)CCN1S(=O)(=O)c1ccc([C@](C)(O)C(F)(F)F)cc1"
A. 503

---

- method: AUC in rat at 2 mg/kg, po
- Type: ADME, organism-based
- Design: dose 2 mg/kg, route oral
- measurement_context: plasma
# AUC annotations
Express it in ng·h/mL; write the number only.

Q. Data request, read-out AUC, for "C[C@@H]1CN(CC2(C(N)=O)CC2)CCN1S(=O)(=O)c1ccc([C@](C)(O)C(F)(F)F)cc1"
A. 638

Consider the additional molecule presented here.
Q. Request the reported AUC associated with "CC(C)(C)c1ccc(S(=O)(=O)N2CCN(c3ccc([N+](=O)[O-])cc3)CC2)cc1"
A. 29.8
